Reference source: BindingDB's records for doi:10.1016/j.bmcl.2006.02.011

- TESTED ON: UniProt:O43451
- Sequence (O43451 whole entry): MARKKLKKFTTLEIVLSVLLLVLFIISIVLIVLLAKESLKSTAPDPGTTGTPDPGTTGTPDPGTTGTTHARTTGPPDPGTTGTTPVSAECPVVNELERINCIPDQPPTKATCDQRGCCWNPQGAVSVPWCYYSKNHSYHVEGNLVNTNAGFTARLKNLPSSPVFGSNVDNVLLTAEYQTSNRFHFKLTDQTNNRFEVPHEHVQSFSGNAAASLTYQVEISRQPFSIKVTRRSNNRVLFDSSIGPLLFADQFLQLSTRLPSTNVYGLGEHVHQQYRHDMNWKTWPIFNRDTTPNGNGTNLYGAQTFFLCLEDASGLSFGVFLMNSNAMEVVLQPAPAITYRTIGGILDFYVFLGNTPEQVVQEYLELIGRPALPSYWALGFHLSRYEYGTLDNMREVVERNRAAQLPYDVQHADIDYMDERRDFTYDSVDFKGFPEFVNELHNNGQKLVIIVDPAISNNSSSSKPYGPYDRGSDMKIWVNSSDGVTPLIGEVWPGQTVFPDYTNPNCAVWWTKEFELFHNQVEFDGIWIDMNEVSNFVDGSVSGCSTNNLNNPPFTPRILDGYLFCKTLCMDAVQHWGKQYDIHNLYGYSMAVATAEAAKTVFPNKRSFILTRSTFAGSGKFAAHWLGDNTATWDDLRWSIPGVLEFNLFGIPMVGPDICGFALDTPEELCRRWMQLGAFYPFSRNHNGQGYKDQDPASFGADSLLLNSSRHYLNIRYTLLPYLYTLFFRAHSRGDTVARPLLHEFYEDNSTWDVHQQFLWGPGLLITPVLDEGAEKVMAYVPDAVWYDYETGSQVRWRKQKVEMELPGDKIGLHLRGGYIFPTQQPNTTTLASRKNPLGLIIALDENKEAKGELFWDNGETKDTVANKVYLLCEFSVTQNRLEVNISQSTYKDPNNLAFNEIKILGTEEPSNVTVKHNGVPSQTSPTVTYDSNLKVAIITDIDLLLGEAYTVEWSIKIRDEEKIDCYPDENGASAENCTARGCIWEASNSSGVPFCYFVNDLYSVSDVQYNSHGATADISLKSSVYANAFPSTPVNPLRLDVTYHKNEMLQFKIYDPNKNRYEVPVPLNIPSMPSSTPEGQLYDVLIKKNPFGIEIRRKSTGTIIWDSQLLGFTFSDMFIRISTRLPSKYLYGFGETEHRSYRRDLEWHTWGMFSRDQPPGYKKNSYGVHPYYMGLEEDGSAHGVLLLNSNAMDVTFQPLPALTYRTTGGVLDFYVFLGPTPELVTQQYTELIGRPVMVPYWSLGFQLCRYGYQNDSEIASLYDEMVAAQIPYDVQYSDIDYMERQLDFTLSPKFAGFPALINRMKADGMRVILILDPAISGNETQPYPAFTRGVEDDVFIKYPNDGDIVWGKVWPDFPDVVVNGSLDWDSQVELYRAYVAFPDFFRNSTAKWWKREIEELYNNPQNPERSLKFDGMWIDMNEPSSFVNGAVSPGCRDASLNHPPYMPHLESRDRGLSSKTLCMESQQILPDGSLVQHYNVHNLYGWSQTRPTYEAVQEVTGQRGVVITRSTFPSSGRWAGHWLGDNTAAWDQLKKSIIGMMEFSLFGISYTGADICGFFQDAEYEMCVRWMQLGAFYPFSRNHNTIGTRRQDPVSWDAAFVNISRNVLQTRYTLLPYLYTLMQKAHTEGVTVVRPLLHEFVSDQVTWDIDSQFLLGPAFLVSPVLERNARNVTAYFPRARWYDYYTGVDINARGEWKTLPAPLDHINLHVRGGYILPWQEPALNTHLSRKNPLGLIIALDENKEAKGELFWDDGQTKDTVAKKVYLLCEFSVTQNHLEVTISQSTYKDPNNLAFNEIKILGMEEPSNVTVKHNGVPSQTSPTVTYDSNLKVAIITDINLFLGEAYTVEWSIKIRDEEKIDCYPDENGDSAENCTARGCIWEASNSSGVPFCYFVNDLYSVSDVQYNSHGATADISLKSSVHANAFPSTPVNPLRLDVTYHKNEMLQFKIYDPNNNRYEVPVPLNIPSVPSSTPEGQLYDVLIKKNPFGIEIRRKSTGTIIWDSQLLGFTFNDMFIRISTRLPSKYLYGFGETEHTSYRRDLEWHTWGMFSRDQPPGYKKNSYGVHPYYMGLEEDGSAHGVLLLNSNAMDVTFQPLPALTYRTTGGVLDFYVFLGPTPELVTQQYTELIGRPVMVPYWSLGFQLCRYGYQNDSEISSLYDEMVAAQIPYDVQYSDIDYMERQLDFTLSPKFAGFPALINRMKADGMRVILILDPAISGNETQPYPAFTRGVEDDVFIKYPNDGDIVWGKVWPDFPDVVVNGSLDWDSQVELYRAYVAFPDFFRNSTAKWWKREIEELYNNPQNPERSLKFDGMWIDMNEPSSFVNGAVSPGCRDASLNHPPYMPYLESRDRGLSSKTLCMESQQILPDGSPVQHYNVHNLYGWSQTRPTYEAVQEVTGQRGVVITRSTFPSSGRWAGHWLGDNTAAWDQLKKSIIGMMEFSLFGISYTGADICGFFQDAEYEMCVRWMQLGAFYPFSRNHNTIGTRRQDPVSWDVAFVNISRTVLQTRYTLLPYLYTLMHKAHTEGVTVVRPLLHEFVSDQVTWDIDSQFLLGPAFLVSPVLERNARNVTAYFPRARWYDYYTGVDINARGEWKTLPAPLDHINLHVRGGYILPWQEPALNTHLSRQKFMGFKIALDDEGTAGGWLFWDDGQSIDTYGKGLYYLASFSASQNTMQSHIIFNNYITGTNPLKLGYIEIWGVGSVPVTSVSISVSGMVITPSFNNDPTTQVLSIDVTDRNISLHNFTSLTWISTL
MEASURED METRIC: pIC50
The value called pIC50 is obtained by taking minus log10 of the concentration in mol/L.

IN: Short answer please: pIC50, UniProt:O43451, entry "C=C1CC[C@@H]2[C@](C)(CO)[C@H](O)CC[C@@]2(C)[C@@H]1/C=C/C1=CC(=C/CCC)/OC1=O"
OUT: 3.96
